Test system: SK-MEL-5 melanoma
Experiment: NCI tumour cell line growth inhibition, 48 h; in the data active means GI50 below about 0.43 µM; inactive means the rest
Hi there, use one of these labels in your reply, thanks! active, inactive

Please review the entries below; each comes with its answer.
C[C@@H]1O[C@@H](O[C@H]2C[C@@H](O)[C@]3(CO)C4C(CC[C@]3(O)C2)[C@@]2(O)CC[C@H](C3=CC(=O)OC3)[C@@]2(C)C[C@H]4O)[C@H](O)[C@H](O)[C@H]1O (some centres not stated); active
CCN(CC)c1ccc(NC(C(=O)c2ccccc2)c2ccccc2)cc1 (configuration not stated); inactive
[Cu+2].[Cu+2].[O-]c1ccccc1C=Nc1ccccc1[O-].[O-]c1ccccc1C=Nc1ccccc1[O-]; inactive
COc1cc(-c2c3c(cn2S(=O)(=O)c2ccccc2)-c2nc(N)sc2CC3)cc(OC)c1OC; inactive
O=C(NNc1nc2cc(F)ccc2n2c(CN3CCOCC3)ccc12)c1ccccc1; inactive
COC1/C=C/O[C@@]2(C)Oc3c(C)c(O)c4c(O)c(cc(O)c4c3C2=O)NC(=O)/C(C)=C\C=C\[C@H](C)C(O)[C@@H](C)[C@@H](O)[C@@H](C)[C@H](OC(C)=O)[C@@H]1C (some centres not stated); inactive

Each compound tested received a call. Report the one for O=C1Nc2ccc(Cl)cc2/C1=C\c1c(-c2ccc(F)cc2)nc2ccccn12 .
inactive
